- System: 786-0 renal
- RUN DESCRIPTION: NCI-60 one-dose screen, 48 h
- REPORTED CONDITIONS: 10 µM unless noted
About 83,000 compounds went through this panel and 20% of them were active in at least one assay; those are over-represented in the sample as a whole. Activity calls are given as the source filed them. How the source made its calls: active means growth percent below 10; inactive means the rest.
A correct response names exactly one class from yes (1) (active), no (0) (inactive)

| COMPOUND | CLASS NAME |
| --- | --- |
| CCn1c2ccc(/C=N/OCCCN(C)C)cc2c2cc(/C=N/OCCCN(C)C)ccc21 | yes (1) |
| O=C1Nc2cc(OC(F)(F)F)ccc2Oc2ccc(-c3ccnc(N4CC[C@H](O)C4)c3)cc21 | yes (1) |
| C#C[C@]1(O)CC[C@H]2[C@@H]3CC=C4c5sc(Nc6cccc(C)n6)nc5CC[C@]4(C)[C@H]3CC[C@@]21C | yes (1) |
| CN1CCN(c2ccc(C(=O)Nc3cccc(-c4cn(-c5ccc(S(N)(=O)=O)cc5)nn4)c3)cc2C(F)(F)F)CC1 | no (0) |
| O=C(Cn1cc(CN2C(=O)c3ccc([N+](=O)[O-])cc3C2=O)nn1)Nc1ccccc1Br | no (0) |
| COc1ccc(C2CC(c3ccc(Nc4nc(NCCO)nc(Nc5ccc(Cl)cc5)n4)cc3)=Nc3c(N)nc(N)nc3N2)cc1 (stereo not drawn) | no (0) |
| O=C(NNc1nc2cc(F)c(F)cc2n2cccc12)c1ncccn1 | yes (1) |

Problem: GET /call?item= Oc1ccccc1-c1nnc(SCc2ccc(O)c3ncccc23)o1 returns the recorded outcome of this test.
Solution: no (0)
